# system-under-test: UniProt:Q06187
# protocol-notes: Degradation of BTK protein in Namalwa cells (Western blot; DC50, Dmax)
quantity-measured: Dmax

Some compounds with known Dmax results, for comparison:
compound: Nc1ncnc2c1c(-c1ccc(Oc3ccccc3)cc1)nn2C1CCN(C2CCN(C(=O)N3CCN(CCN4CCC(c5ccc6c(c5)CN(C5CCC(=O)NC5=O)C6=O)CC4)CC3)CC2)CC1 (centres unmarked)
Dmax: > 90%
--
compound: NC(=O)c1c(-c2ccc(Oc3ccccc3)cc2)nn2c1NCCC2C1CCN(CC2CCN(C(=O)N3CCC(N4CCC(c5ccc6c(c5)C(=O)N(C5CCC(=O)NC5=O)C6=O)CC4)CC3)CC2)CC1 (centres unmarked)
Dmax: > 90%
--
compound: NC(=O)c1c(-c2ccc(Oc3ccccc3)cc2)nn2c1NCC[C@H]2C1CCN(C(=O)N2CCN(CCN3CCC(c4ccc5c(c4)CN(C4CCC(=O)NC4=O)C5=O)CC3)CC2)CC1 (some centres unmarked)
Dmax: > 75%
--
compound: NC(=O)c1c(-c2ccc(Oc3ccccc3)cc2)nn2c1NCCC2C1CCN(C2CCN(C(=O)N3CCN(c4ccc5c(c4)C(=O)N(C4CCC(=O)NC4=O)C5=O)CC3)CC2)CC1 (centres unmarked)
Dmax: > 50%

The record that follows has no Dmax shown yet.
Prompt: Recall the recorded Dmax for NC(=O)c1c(-c2ccc(Oc3ccccc3)cc2)nn2c1NCC[C@H]2C1CCN(C(=O)N2CCC(CN3CCC(c4ccc5c(c4)CN(C4CCC(=O)NC4=O)C5=O)CC3)CC2)CC1 (some centres unmarked) with UniProt:Q06187 and state it.
Completion: > 90%

----------
# system-under-test: BTK (Homo sapiens)
# Sequence (Q06187 whole entry): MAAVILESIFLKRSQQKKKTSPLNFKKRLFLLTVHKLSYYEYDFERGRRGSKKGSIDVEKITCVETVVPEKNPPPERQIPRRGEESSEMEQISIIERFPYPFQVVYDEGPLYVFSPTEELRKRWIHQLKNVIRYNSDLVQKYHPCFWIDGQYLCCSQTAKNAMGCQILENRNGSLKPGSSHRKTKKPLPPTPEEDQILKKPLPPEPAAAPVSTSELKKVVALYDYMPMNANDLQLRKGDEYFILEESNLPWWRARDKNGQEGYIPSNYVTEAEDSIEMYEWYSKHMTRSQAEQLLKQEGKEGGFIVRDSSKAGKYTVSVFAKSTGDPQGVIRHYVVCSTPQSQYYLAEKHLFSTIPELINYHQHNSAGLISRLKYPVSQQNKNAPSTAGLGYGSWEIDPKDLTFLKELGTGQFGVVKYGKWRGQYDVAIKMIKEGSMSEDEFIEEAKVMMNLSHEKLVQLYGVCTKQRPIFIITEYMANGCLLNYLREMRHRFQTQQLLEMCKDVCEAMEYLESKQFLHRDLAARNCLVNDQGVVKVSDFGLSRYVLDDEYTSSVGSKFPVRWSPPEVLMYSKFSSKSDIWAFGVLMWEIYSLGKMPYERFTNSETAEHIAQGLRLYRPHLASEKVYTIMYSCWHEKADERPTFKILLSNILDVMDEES
# protocol-notes: BTK degradation, DC50 and Dmax of Table 1 (cell line not given)
# Type: cell-based
# Parameters: endogenous in cells
# test-settings: concentration giving 50% reduction of BTK expression level
quantity-measured: DC50

molecule: Nc1ncnc2c1c(-c1ccc(Oc3ccccc3)cc1)nn2[C@@H]1CCCN(CC2CCN(C(=O)N3CCN(c4ccc5c(c4)C(=O)N(C4CCC(=O)NC4=O)C5=O)CC3)CC2)C1 (some centres unmarked)
system-under-test: BTK (Homo sapiens)
DC50: > 50 nM

molecule: Nc1ncnc2c1c(-c1ccc(Oc3ccccc3)cc1)nn2C1CCN(C(=O)N2CCC(c3ccc4c(c3)C(=O)N(C3CCC(=O)NC3=O)C4=O)CC2)CC1 (centres unmarked)
system-under-test: BTK (Homo sapiens)
DC50: > 50 nM

molecule: Nc1ncnc2c1c(-c1ccc(Oc3ccccc3)cc1)nn2[C@@H]1CCCN(C(=O)N2CCC(N3CCC(c4ccc5c(c4)C(=O)N(C4CCC(=O)NC4=O)C5=O)CC3)CC2)C1 (some centres unmarked)
system-under-test: BTK (Homo sapiens)
DC50: < 10 nM

molecule: Nc1ncnc2c1c(-c1ccc(Oc3ccccc3)cc1)nn2[C@@H]1CCCN(C2CCN(CCCN3CCN(c4ccc5c(c4)CN(C4CCC(=O)NC4=O)C5=O)CC3)CC2)C1 (some centres unmarked)
system-under-test: BTK (Homo sapiens)
DC50: > 50 nM

The record that follows has no DC50 shown yet.
Prompt: Recall the recorded DC50 for Nc1ncnc2c1c(-c1ccc(Oc3ccccc3)cc1)nn2[C@@H]1CCCN(C(=O)N2CCN(CCCN3CCC(c4ccc5c(c4)CN(C4CCC(=O)NC4=O)C5=O)CC3)CC2)C1 (some centres unmarked) with BTK (Homo sapiens) and state it.
Completion: > 50 nM

These data points were gathered from patent US12139492B2.
